// data source = paper PMC8809517

- EXPERIMENTAL_SYSTEM: T1, GFP-9S library array, motif 4 ND N98D;D124E (synthetic construct, N98D;D124E)
- T1 chain: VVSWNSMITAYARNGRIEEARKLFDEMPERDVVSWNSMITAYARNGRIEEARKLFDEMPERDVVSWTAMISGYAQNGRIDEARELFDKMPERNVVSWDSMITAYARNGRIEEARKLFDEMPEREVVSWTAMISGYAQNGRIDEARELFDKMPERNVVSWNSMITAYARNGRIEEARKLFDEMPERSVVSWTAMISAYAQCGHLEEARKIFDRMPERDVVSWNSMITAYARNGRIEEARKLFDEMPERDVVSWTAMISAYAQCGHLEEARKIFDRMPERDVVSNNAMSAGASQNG
- ASSAY_PROCEDURE: high-throughput RNA pulldown from lysate on Ni-NTA beads; HRP: 50 mM Tris pH 8, 150 mM NaCl, 1 mM beta-mercaptoethanol, 50 ug/ml BSA, 3 ug/ml yeast RNA, 0.5% heparin; ITC and FP: Tris pH 8, 200 mM KCl, 5% glycerol; MST: 50 mM Tris pH 8, 200 mM NaCl, 1 mM DTT, BSA, heparin, 0.05% Tween 20
- APPLIED_CONDITIONS: tags: N-terminal His-eGFP; label: 5' IRDye 800CW
REPORTED_PROPERTY: Kd (nM)

[
  {
    "BINDER": "AUUAUACGUGA (ssRNA) [IR-rpoA-U]",
    "OBSERVED": 283
  },
  {
    "BINDER": "AUUAAACGUGA (ssRNA) [IR-rpoA-A]",
    "OBSERVED": 343
  }
]
